B1: glmS ribozyme (parent)
chain: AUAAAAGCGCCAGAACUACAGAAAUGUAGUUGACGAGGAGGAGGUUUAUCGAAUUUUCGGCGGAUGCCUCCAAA

Variants of: B1
Assay: self-cleavage kobs at 10000 uM GlcN6P; higher = faster cleavage; RNA array
Conditions: with glucosamine-6-phosphate
This sample holds only a part of the variants without activity.
Test Readout: self-cleavage kobs at 10000 uM GlcN6P (s⁻¹)
Write down the numeric answer in s⁻¹ and omit the unit.

Guide cases for self-cleavage kobs at 10000 uM GlcN6P, answers given:
Seq	self-cleavage kobs at 10000 uM GlcN6P / s⁻¹
AUAAAAGCGCCAGAACUACAGAAAUGUAGUAUACGAGGAGGAGGUUUAUCGAAUUUUCGGCGGAUGCCUCCAAA	0.0006
AUAAAAGCGCCAGAACUACAGAAAUGUAGUUGACGAGGUGGGGGUCUAUCGAAUUUUCGGCGGAUGCCUCCAAA	0.00379

Kindly note the recorded self-cleavage kobs at 10000 uM GlcN6P for AUAAAAGCGCCAGAACUACAGAAAUGUAGUUGACGAGGAGUGGGUUUAUCGAAUUUUCGGCGGAUGCCUCCAAA , which is 0.000843

Kindly note the recorded self-cleavage kobs at 10000 uM GlcN6P for AUAAAAGCGCCAGGACUACAGAAAUGUAGUUGACGAAGAGGAGGUUUAUCGAAAUUUCGGCGGAUGCCUCCAAA , which is 0.00406

Kindly note the recorded self-cleavage kobs at 10000 uM GlcN6P for AUAAAAUCGGCUGAACUACAGAAAUGUAGUUGACGAGGAGGAGGUUUAUCGAAUUUUCGGCGGAGGCGUCCAAA , which is 5.57e-05

Kindly note the recorded self-cleavage kobs at 10000 uM GlcN6P for AUAAAAGCGCCAGAACUACAGAAAUGUAGUUGACGAGGUGGAGGUUUAUCGUAUUGUCGGCGGAUGCCUCCAAA , which is 8.75e-05

Kindly note the recorded self-cleavage kobs at 10000 uM GlcN6P for AUAAAAGCGCCAGAACUACAGAAAUGUAGUUUACGAGGAGGAGGUUUAUCGAAUGUUCGGCGGAUGCCUCUAAA , which is 0.000518

Kindly note the recorded self-cleavage kobs at 10000 uM GlcN6P for AUAAAAGCGCCAGAACUACAGAAAUGUAGUAGACGAGGAGGAGGUUUGUCGAAUUUUCGGCGGAUGCCUCCAAA , which is 1.74e-05

Kindly note the recorded self-cleavage kobs at 10000 uM GlcN6P for AUAAAAGCGCCAGAACUACAGAAAUGUAGUUGACGAGGAUGAGGUUUAUCGAAUAUUCGGCGGAUGCCUCAAAA , which is 0.0227

Kindly note the recorded self-cleavage kobs at 10000 uM GlcN6P for AUAAAAGCGCCAGAACUACAGAAAUGUAGUUGACGAGUAGGAGGUUGAUCGAAUUUUCGGCGGAUGCCUGCAAA , which is 9.01e-05

Kindly note the recorded self-cleavage kobs at 10000 uM GlcN6P for AUAAAAGCGCCAGAACUACAGAAAUGUAGUUGACGAGGAGAAGGUUUAUCGAAUGUUCGGCGGAUGCCUCCAAA , which is 0.000179

Kindly note the recorded self-cleavage kobs at 10000 uM GlcN6P for AUAAAAGCGCCAGGACUACAGAAAUGUAGUUGACGAGGAGGAGGUUUAUCGAAUUUUUGGCGGAUGCCUCUAAA , which is 0.00012

All figures here come from the supplement of paper PMC7125110.
